Reference source for all entries: PubChem BioAssay (NCI)

TGI reference
System: M14 melanoma
assay_procedure: NCI tumour cell line growth inhibition, 48 h
measured_parameter: TGI

# compound, test_system, measured_parameter, result_value
measured = [
    ("CCCCCCCCCCCCCCCCP(=O)(O)OP(=O)(O)OCC1OC(n2cnc3c(N)ncnc32)C(O)C1O (stereo not given)", "M14 melanoma", "TGI", "56.7 µM"),
    ("CC(=O)CCC[C@@H](C)[C@@H]1O[C@H]([C@@]2(C)CCC(=O)O2)C[C@H]2C(CSc3ccccc3)C(=O)O[C@@H]12 (stereo not given in full)", "M14 melanoma", "TGI", "26.8 µM"),
    ("NC1CC(=O)c2cc(Br)sc21 (stereo not given)", "M14 melanoma", "TGI", "> 100 µM"),
    ("ON=C1CCC(c2ccccc2)CC1 (stereo not given)", "M14 melanoma", "TGI", "> 100 µM"),
    ("COC(=N)C12C(N)=NC(OC)(OC)C1(C#N)C21C(=O)N(c2ccccc2)N=C1C (stereo not given)", "M14 melanoma", "TGI", "> 100 µM"),
    ("CCC1(N=[N+]=[N-])C(=O)Nc2cc(C)ccc2C1=O (stereo not given)", "M14 melanoma", "TGI", "> 100 µM"),
    ("O=S(=O)(O)c1c(N=Nc2c(O)ccc3ccccc23)ccc2ccccc12", "M14 melanoma", "TGI", "> 100 µM"),
    ("CCOP(=O)(OCC)/C(C#N)=C/c1ccco1", "M14 melanoma", "TGI", "> 100 µM"),
    ("[N-]=[N+]=NC1C(Br)C(=O)NC(=O)N1[C@H]1C[C@H](O)[C@@H](CO)O1 (stereo not given in full)", "M14 melanoma", "TGI", "> 100 µM"),
    ("CCN(CC)CCS(=O)c1c2cc(OC)ccc2nc2ccc(OC)cc12 (stereo not given)", "M14 melanoma", "TGI", "26.3 µM"),
]
